tested on: PCSK9; assay: ELISA of secreted PCSK9 protein in HepG2 cells; format: cell-based, human; settings: HepG2 cells; also: test concentration or dose not given here
ENDPOINT LABEL: ELISA PCSK9

>>> print(df.to_string())
                                   compound  measured_on  endpoint_label              observed
0  O=C(C[C@@H]1CC[C@H]2[C@@H](COC[C@H](O)CN2Cc2ccc(Oc3ccccc3)cc2)O1)N1CCc2ccccc2C1 [Compound 6a]        PCSK9     ELISA PCSK9  Y (Decrease >2-fold)
1  CN(C)c1ccc2c(c1)[C@@H]1C[C@@H](CC(=O)NCc3ccc(Oc4ccccc4)cc3)O[C@@H](CO)[C@@H]1O2 [Compound 12a]        PCSK9     ELISA PCSK9  Y (Decrease >2-fold)

Reference source for all entries: patent US9526720B2
